Reference source: PubChem BioAssay (NCATS)

experiment: P-glycoprotein substrates identified in KB-8-5-11 adenocarcinoma cell line, qHTS therapeutic library screen (AID 1346987); details: KB-8-5-11 (P-gp overexpressing) viability, CellTiter-Glo, 72 h; series mostly up to 44.5 µM; note: nearly all actives have a fitted effect of over 65% in size
Inconclusive results are not listed. Activity calls are given as the source filed them. Calls come from the whole dose curve; as a rule, active = well fitted inhibition curve with a large enough effect; inconclusive = small, poorly fitted or top-dose-only effect; inactive = flat fitted curve, though single readings scatter.
Classes used: T = active, F = inactive

>  <molecule>
C=C[C@@H]1[C@H](O[C@@H]2O[C@H](CO)[C@@H](O)[C@H](O)[C@H]2O)OC=C(C(=O)O)[C@H]1CCOC(=O)/C=C/c1ccc(O)c(O)c1

>  <discrete_label>
F

$$$$
>  <molecule>
CC(C)CC(=O)OC1OC=C(CO[C@@H]2O[C@H](CO)[C@@H](O)[C@H](O)[C@H]2O)C2CC(O)C(O)(CO)C12 (stereo partly drawn)

>  <discrete_label>
F

$$$$
>  <molecule>
CC1COC2(OC3CC4C5CC(O[C@@H]6O[C@H](C)[C@@H](O[C@@H]7O[C@@H](C)[C@H](O)[C@@H](O)[C@H]7O)[C@H](O)[C@H]6O)C6CC(O)CCC6(C)C5CCC4(C)C3C2C)C(O)C1 (stereo partly drawn)

>  <discrete_label>
F

$$$$
>  <molecule>
CC(C)S(=O)(=O)NC[C@H](C)c1ccc(NC(=O)c2cc(F)cc(F)c2)cc1

>  <discrete_label>
F

$$$$
>  <molecule>
CNC(=O)c1ccccc1Nc1nc(Nc2ccc3c(c2OC)CCC[C@@H](N2CCN(CCO)CC2)C3)ncc1Cl

>  <discrete_label>
T

$$$$
>  <molecule>
CC1(C(=O)O)CCCC2(C)C3CCC4CC3(CCC12)CC4=O (stereo not drawn)

>  <discrete_label>
F

$$$$
>  <molecule>
C[C@H](O)[C@H](O)/C=C/c1cccc(O)c1CO

>  <discrete_label>
F

$$$$
>  <molecule>
O=C(O)COCCN1CCN([C@H](c2ccccc2)c2ccc(Cl)cc2)CC1

>  <discrete_label>
F

$$$$
